Reported AC50 values follow for various compounds
- SUBJECT_OF_TEST: UniProt:P55212
- Sequence (P55212 whole entry): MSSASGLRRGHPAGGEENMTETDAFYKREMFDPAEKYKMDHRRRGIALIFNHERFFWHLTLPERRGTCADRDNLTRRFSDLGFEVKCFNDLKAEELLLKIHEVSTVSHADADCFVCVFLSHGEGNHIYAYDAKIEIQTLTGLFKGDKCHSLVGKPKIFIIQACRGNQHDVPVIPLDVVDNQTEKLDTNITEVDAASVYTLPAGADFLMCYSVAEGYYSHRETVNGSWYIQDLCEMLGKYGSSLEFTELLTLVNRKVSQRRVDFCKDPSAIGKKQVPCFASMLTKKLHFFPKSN
- ASSAY_SUMMARY: human caspase-6 inhibitors, dose response, biochemical, VEID-R110 fluorescence, cherry-pick (AID 720632)
Active and inactive are the calls of the source. How the calls were made is not given here.
QUANTITY_NAME: AC50

{"COMPOUND": "COc1ccccc1NC(=O)COC(=O)c1ccc([N+](=O)[O-])s1", "QUANTITY_NAME": "AC50", "VALUE": "1.95 µM (active)"}
{"COMPOUND": "O=c1ccc2c(-c3ccccc3S(=O)(=O)O)c3ccc(O)c(O)c3oc-2c1O", "QUANTITY_NAME": "AC50", "VALUE": "0.192 µM (active)"}
{"COMPOUND": "O=C(O)C1CCCCC1C(=O)Nc1cccc(Br)c1 (configuration not stated)", "QUANTITY_NAME": "AC50", "VALUE": "0.669 µM (active)"}
{"COMPOUND": "COc1cccc(N2C(=O)NC(=O)/C(=C\\c3ccc([N+](=O)[O-])s3)C2=O)c1", "QUANTITY_NAME": "AC50", "VALUE": "43 µM (active)"}
{"COMPOUND": "COc1cc2c(cc1OC)-c1c3c(cc4c1[C@@H](C2)N(C)CC4)OCO3", "QUANTITY_NAME": "AC50", "VALUE": "5.63 µM (active)"}
{"COMPOUND": "Cc1ccc2nc(-c3ccc(O)c(O)c3)cn2c1", "QUANTITY_NAME": "AC50", "VALUE": "12 µM (active)"}
{"COMPOUND": "Cc1c(CCC(=O)O)c(=O)oc2c(C)c(OCc3ccccc3Cl)ccc12", "QUANTITY_NAME": "AC50", "VALUE": "1.38 µM (active)"}
